Tested on: SW48 human colorectal cancer cells (MSI-H cancer cells)
experimental_protocol: SW48 cell viability, CellTiter-Glo, 120 hours (Example B)
protocol_conditions: Homo sapiens, SW48, 120 h, read-out: SW48 pCC50, SW48 cell viability, 120 hours incubation (converted); Table 2
assay_metric: CC50 (nM)
Express the result in nM but write the number alone.

Need CC50 of Cc1nc2cc(S(=O)(=O)N(C)c3ccc([C@H]4CCC[C@@H](C(=O)Nc5ccc(C(F)(F)F)cc5F)[C@@H]4C(=O)O)cc3)ccc2n1CCN , thanks.
1580

And the next one, Cc1nc2cc(S(=O)(=O)N(C)c3ccc([C@@H]4CC[C@H](C)[C@H](C(=O)Nc5ccc(C(F)(F)F)cc5F)[C@H]4C(=O)O)cc3)ccc2n1C (single isomer, unassigned) ?
7940

And then Cc1nc2cc(S(=O)(=O)N(C)c3ccc([C@@H]4C[C@H](N5CC[C@@H](F)C5)C[C@H](C(=O)Nc5ccc(C(F)(F)F)cc5F)[C@H]4C(=O)O)cc3)ccc2n1C (stereo in doubt) , what is it?
7940

And the next one, O=C(O)[C@@H]1[C@@H](c2ccc(-c3cncc(F)c3)cc2)CCC[C@H]1C(=O)Nc1ccc(C(F)(F)F)cc1F ?
3980

Then this compound: Cc1nc2cc(S(=O)(=O)N(C)c3ccc([C@H]4C[C@@H](CS(C)(=O)=O)C[C@@H](C(=O)Nc5ccc(C(F)(F)F)cc5F)[C@@H]4C(=O)O)cc3)ccc2n1C (relative stereo)
1000

Moving on to Cc1nc2cc(S(=O)(=O)N(C)c3ccc([C@@H]4C[C@H](N5CCC(F)(F)CC5)C[C@H](C(=O)Nc5ccc(C(F)(F)F)cc5F)[C@H]4C(=O)O)cc3)ccc2n1C (stereo in doubt)
5010

Cool, now CN(c1ccc([C@H]2CCC[C@@H](C(=O)Nc3ccc(C(F)(F)F)cc3F)[C@@H]2C(=O)O)cc1)S(=O)(=O)c1cccc(C(=O)N2CCOCC2)c1
1000

Query Cc1nc2cc(S(=O)(=O)N(C)c3ccc([C@H]4CCC[C@@H](C(=O)N[C@H]5CC[C@H](C(C)C)CC5)[C@@H]4C(=O)O)cc3)ccc2n1C next
631

Next compound up: CCO[C@@H]1C[C@H](c2ccc(N(C)S(=O)(=O)c3ccc4[nH]c(C)nc4c3)cc2)[C@@H](C(=O)O)[C@H](C(=O)Nc2ccc(C(F)(F)F)cc2F)C1
794

Item: COCCO[C@@H]1C[C@H](c2ccc(N(C)S(=O)(=O)c3ccc4c(c3)nc(C)n4C)cc2)[C@@H](C(=O)O)[C@H](C(=O)Nc2ccc(C(F)(F)F)cc2F)C1 (stereo in doubt)
158

Also Cc1nc2ccc(S(=O)(=O)N(C)c3ccc([C@H]4CCC[C@@H](C(=O)Nc5ccc(C(F)(F)F)cc5F)[C@@H]4C(=O)O)cc3)cc2n1C ?
3980

====

Please provide measured IC50 for the entries that follow.
test_target: recombinant full-length WRN protein (1-1432) (Homo sapiens, UniProt Q14191)
Construct: recombinant full-length WRN protein (1-1432)
Sequence (Q14191 whole entry): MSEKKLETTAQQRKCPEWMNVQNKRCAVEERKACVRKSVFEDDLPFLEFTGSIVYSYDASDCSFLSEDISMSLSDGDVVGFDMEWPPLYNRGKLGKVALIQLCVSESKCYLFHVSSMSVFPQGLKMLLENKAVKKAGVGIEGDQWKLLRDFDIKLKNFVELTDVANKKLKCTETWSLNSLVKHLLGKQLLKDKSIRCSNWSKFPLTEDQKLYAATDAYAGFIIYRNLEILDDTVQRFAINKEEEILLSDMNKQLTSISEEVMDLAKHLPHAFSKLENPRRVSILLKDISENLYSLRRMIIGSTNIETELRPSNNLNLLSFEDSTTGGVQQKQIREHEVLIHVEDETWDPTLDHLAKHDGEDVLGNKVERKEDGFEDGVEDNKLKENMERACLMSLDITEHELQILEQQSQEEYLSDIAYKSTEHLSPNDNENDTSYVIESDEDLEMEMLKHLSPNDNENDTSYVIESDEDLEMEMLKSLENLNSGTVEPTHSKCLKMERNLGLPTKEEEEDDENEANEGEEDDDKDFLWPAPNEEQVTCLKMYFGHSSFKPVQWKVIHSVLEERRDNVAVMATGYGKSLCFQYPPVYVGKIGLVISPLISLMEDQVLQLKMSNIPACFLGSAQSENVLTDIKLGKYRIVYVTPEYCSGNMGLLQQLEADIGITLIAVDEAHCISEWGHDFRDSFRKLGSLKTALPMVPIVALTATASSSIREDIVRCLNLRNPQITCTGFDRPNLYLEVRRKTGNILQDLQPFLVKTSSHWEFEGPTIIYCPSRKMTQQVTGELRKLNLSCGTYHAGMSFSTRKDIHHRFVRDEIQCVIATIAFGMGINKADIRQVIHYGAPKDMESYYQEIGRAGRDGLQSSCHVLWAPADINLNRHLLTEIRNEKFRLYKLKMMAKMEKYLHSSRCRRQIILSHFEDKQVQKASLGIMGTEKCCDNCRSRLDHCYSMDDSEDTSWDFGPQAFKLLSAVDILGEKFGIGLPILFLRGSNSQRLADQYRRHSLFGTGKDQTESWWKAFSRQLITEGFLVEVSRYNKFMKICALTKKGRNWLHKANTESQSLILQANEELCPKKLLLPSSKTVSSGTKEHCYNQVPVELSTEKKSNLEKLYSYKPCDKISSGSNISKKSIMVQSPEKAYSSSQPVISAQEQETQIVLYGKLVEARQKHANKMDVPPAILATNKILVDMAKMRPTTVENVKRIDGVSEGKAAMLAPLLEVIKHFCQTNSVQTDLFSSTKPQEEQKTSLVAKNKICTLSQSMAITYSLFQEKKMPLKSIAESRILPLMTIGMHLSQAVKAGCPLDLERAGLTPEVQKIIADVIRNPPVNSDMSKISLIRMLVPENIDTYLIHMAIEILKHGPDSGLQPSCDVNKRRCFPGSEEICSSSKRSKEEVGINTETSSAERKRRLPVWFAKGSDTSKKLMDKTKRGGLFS
experimental_protocol: WRN unwinding activity, fluorogenic 384-well assay (Example A)
Format: biochemical
protocol_conditions: WRN unwinding activity, 4 hr; Table 2; read-out: 4 hr UNW pIC50 (converted)
Give just the number in µM; leave the unit off.

What value of IC50 on recombinant full-length WRN protein (1-1432) (Homo sapiens, UniProt Q14191) does Cc1nc2cc(S(=O)(=O)N(C)c3ccc([C@@H]4C[C@@H](N5CCC(F)(F)C5)C[C@H](C(=O)Nc5ccc(C(F)(F)F)cc5F)[C@H]4C(=O)O)cc3)ccc2n1C (stereo in doubt) [Example 303] have?
3.98

Same again, this time with O=C(O)[C@@H]1[C@@H](c2ccc(-c3nncc4ccoc34)cc2)CCC[C@H]1C(=O)Nc1ccc(C(F)(F)F)cc1F [Example 45]
0.126

Would you mind doing Cc1nc2cc(S(=O)(=O)N(c3ccc([C@H]4CCC[C@@H](C(=O)Nc5ccc(C(F)(F)F)cc5F)[C@@H]4C(=O)O)cc3)C3CC3)ccc2n1C [Example 238] as well?
0.00398

Hello, the source for this data is patent US12662451B2, in case you need it.
